- System: Fusobacterium nucleatum subsp. animalis
- run_description: growth AUC relative to DMSO control (median of replicates) (fraction); higher = more growth (less inhibition), active = hit call of the paper
- assay_context: 20 µM; 24 h
This listing pairs molecules with measured growth AUC.
quantity: growth AUC

>>> observed_measurement("C=CCN=C=S")
1.06
>>> observed_measurement("CN(C(=O)COc1nc2ccccc2s1)c1ccccc1")
1.1
>>> observed_measurement("CNC(=O)c1cc(C#N)cc(C)c1NC(=O)c1cc(Br)nn1-c1ncccc1Cl")
0.88
>>> observed_measurement("Nc1c([N+](=O)[O-])ccc(Oc2ccccc2)c1Cl")
0.947
>>> observed_measurement("CN(C)C(CSS(=O)(=O)[O-])CSS(=O)(=O)O.[Na+]")
1.11
>>> observed_measurement("CN(C)C(CSC(N)=O)CSC(N)=O.Cl")
1.15
>>> observed_measurement("Nc1cc(Cl)ccc1Cl")
1.07
>>> observed_measurement("COC(=O)NCc1cc(/C(C)=N/OCc2cccc(C)n2)ccc1Cl")
0.933
>>> observed_measurement("Cc1c(N)cccc1N")
1.04
>>> observed_measurement("O=C(O)C(Cl)Cl")
1.04
>>> observed_measurement("CON(C)C(=O)Nc1ccc(Br)cc1")
1.07
>>> observed_measurement("N#Cc1nn(-c2c(Cl)cc(C(F)(F)F)cc2Cl)c(N)c1S(=O)C(F)(F)F (configuration not stated)")
0.974

====

This listing pairs molecules with measured growth AUC.
- Tested on: Streptococcus salivarius
- run_description: growth AUC relative to DMSO control (median of replicates) (fraction); higher = more growth (less inhibition), active = hit call of the paper
- assay_context: 20 µM; 24 h
quantity: growth AUC

>>> observed_measurement("CNC(=O)N(C)c1nnc(C(C)(C)C)s1")
0.959
>>> observed_measurement("CCOc1cc(Oc2ccc(C(F)(F)F)cc2Cl)ccc1[N+](=O)[O-]")
0.976
>>> observed_measurement("CCOP(=O)(OCC)Oc1ccc([N+](=O)[O-])cc1")
1.01
>>> observed_measurement("Fc1ccc(C2(Cn3cncn3)OC2c2ccccc2Cl)cc1 (configuration not stated)")
0.966
>>> observed_measurement("CCOC(=O)c1cn2nc(OP(=S)(OCC)OCC)cc2nc1C")
0.981
>>> observed_measurement("C=CCC1=C(C)C(OC(=O)C2C(C=C(C)C)C2(C)C)CC1=O (mixture of isomers)")
0.953
>>> observed_measurement("C[N+]1(C)CCCCC1.[Cl-]")
0.99

====

This listing pairs compounds with measured growth AUC.
- System: Bacteroides dorei
- run_description: growth AUC relative to DMSO control (median of replicates) (fraction); higher = more growth (less inhibition), active = hit call of the paper
- assay_context: 20 µM; 24 h
quantity: growth AUC

>>> observed_measurement("Nc1ccc(Cc2ccc(N)c(Cl)c2)cc1Cl")
1.01
>>> observed_measurement("CNC(=O)O/N=C/C(C)(C)S(C)(=O)=O")
1.02
>>> observed_measurement("CCCCOC(=O)N(C)SN(C)C(=O)Oc1cccc2c1OC(C)(C)C2")
1.01

====

- Tested on: Roseburia intestinalis
- run_description: growth AUC relative to DMSO control (median of replicates) (fraction); higher = more growth (less inhibition), active = hit call of the paper
- assay_context: 20 µM; 24 h
This listing pairs compounds with measured growth AUC.
quantity: growth AUC

>>> observed_measurement("CCCCN(CC)c1c([N+](=O)[O-])cc(C(F)(F)F)cc1[N+](=O)[O-]")
1.04
>>> observed_measurement("O=C(Nc1ccccc1)N(Cc1ccc(Cl)cc1)C1CCCC1")
0.991
>>> observed_measurement("O=C(NCCc1ncc(C(F)(F)F)cc1Cl)c1ccccc1C(F)(F)F")
0.987
>>> observed_measurement("Cc1ccccc1C(=O)Nc1cccc(OC(C)C)c1")
1.01
>>> observed_measurement("CCCCCCCCSC(=O)Oc1cc(Cl)nnc1-c1ccccc1")
1.06

====

- Test system: Streptococcus salivarius
- run_description: growth AUC relative to DMSO control (median of replicates) (fraction); higher = more growth (less inhibition), active = hit call of the paper
- assay_context: 20 µM; 24 h
quantity: growth AUC

>>> observed_measurement("CCOC(=O)CCN(SN(C)C(=O)Oc1cccc2c1OC(C)(C)C2)C(C)C")
0.998
>>> observed_measurement("CNc1cnn(-c2cccc(C(F)(F)F)c2)c(=O)c1Cl")
0.976
>>> observed_measurement("CN1COCN(Cc2cnc(Cl)s2)/C1=N/[N+](=O)[O-]")
1.02
>>> observed_measurement("CCOP(=S)(OCC)Oc1ccc(=O)n(-c2ccccc2)n1")
0.983
>>> observed_measurement("CNC(=O)Oc1cccc2c1OC(C)(C)O2")
1
>>> observed_measurement("CC1(C)CCC(Cc2ccc(Cl)cc2)C1(O)Cn1cncn1 (stereo unspecified)")
1
>>> observed_measurement("CCc1cccc(CC)c1N(COC)C(=O)CCl")
0.981
>>> observed_measurement("CC1=C(C(=O)Nc2ccccc2)S(=O)(=O)CCO1")
0.979
>>> observed_measurement("Nc1cc(Cl)ccc1Cl")
1
>>> observed_measurement("O=[N+]([O-])c1ccc(O)c([N+](=O)[O-])c1")
0.992
>>> observed_measurement("Cc1ccccc1[N+](=O)[O-]")
1.01
>>> observed_measurement("CCCN(CCOc1c(Cl)cc(Cl)cc1Cl)C(=O)n1ccnc1")
0.984
>>> observed_measurement("Oc1ccc(Cl)cc1")
0.984
>>> observed_measurement("CCCN(CCC)C(=O)SCc1ccccc1")
1
>>> observed_measurement("Nc1nc(N)nc(N)n1")
1.02
>>> observed_measurement("CC(C)C(C(=O)OC(C#N)c1cccc(Oc2ccccc2)c1)c1ccc(OC(F)F)cc1 (stereo unspecified)")
0.993

====

- Test system: Bacteroides stercoris
- run_description: growth AUC relative to DMSO control (median of replicates) (fraction); higher = more growth (less inhibition), active = hit call of the paper
- assay_context: 20 µM; 24 h
quantity: growth AUC

>>> observed_measurement("CCCCc1c(C)nc(N(C)C)[nH]c1=O")
1.03
>>> observed_measurement("ClC1=C(Cl)C2(Cl)C3COCC3C1(Cl)C2(Cl)Cl (stereo not drawn)")
1.05
>>> observed_measurement("CC(C)OC(=O)Nc1ccccc1")
1.12
>>> observed_measurement("CCOP(=S)(OCC)Oc1cnccn1")
0.979
>>> observed_measurement("CCN(CC)C(=O)/C(Cl)=C(/C)OP(=O)(OC)OC")
0.977
>>> observed_measurement("CC(C)(C)C(O)/C(=C/c1ccc(Cl)cc1Cl)n1cncn1 (mixture of isomers)")
1.32
>>> observed_measurement("CCCSP(=S)(OCC)Oc1ccc(SC)cc1 (stereo not drawn)")
1.06
>>> observed_measurement("CN(C)C(=O)Nc1ccc(Cl)cc1")
1.05

====

- System: Streptococcus salivarius
- run_description: growth AUC relative to DMSO control (median of replicates) (fraction); higher = more growth (less inhibition), active = hit call of the paper
- assay_context: 20 µM; 24 h
quantity: growth AUC

>>> observed_measurement("Cc1nc(N(C)C=O)nc(OC(=O)N(C)C)c1C")
0.999
>>> observed_measurement("CNC(=S)S")
0.997
>>> observed_measurement("COP(=S)(OC)Oc1ccc(Sc2ccc(OP(=S)(OC)OC)cc2)cc1")
1.01
>>> observed_measurement("COC(=O)NC(=S)Nc1ccccc1NC(=S)NC(=O)OC")
0.98
>>> observed_measurement("CCCCC(C#N)(Cn1cncn1)c1ccc(Cl)cc1 (configuration not stated)")
0.993
>>> observed_measurement("COP(=S)(OC)Oc1ccc(S(C)=O)c(C)c1 (configuration not stated)")
0.988
>>> observed_measurement("O=[N+]([O-])c1ccc(Oc2ccc(C(F)(F)F)cc2[N+](=O)[O-])cc1")
0.985

====

- System: Lactobacillus gasseri
- run_description: growth AUC relative to DMSO control (median of replicates) (fraction); higher = more growth (less inhibition), active = hit call of the paper
- assay_context: 20 µM; 24 h
quantity: growth AUC

>>> observed_measurement("CNC(=O)N(C)c1nnc(C(C)(C)C)s1")
1.16
>>> observed_measurement("CNC(=O)ON=C(CS(C)=O)C(C)(C)C (stereo unspecified)")
1.06
>>> observed_measurement("CS(=O)(=O)c1cc(C(F)(F)F)ccc1C(=O)c1cnoc1C1CC1")
1.04
>>> observed_measurement("CCOCCN(C(=O)CCl)C(=C(C)C)c1ccccc1")
0.935
>>> observed_measurement("COC(=O)COc1cc(Cl)c(Cl)cc1Cl")
1.18
>>> observed_measurement("COC(=O)C1(O)c2ccccc2-c2ccccc21")
1.07

====

- System: Collinsella aerofaciens
- run_description: growth AUC relative to DMSO control (median of replicates) (fraction); higher = more growth (less inhibition), active = hit call of the paper
- assay_context: 20 µM; 24 h
This listing pairs molecules with measured growth AUC.
quantity: growth AUC

>>> observed_measurement("N#CCNC(=O)c1cnccc1C(F)(F)F")
1.01
>>> observed_measurement("CCOP(=S)(OCC)SCCSCC")
0.972
>>> observed_measurement("CCNP(=S)(OC)O/C(C)=C/C(=O)OC(C)C (stereo not drawn)")
1.01
>>> observed_measurement("CNC(=O)Oc1ccccc1C(C)C")
0.986
>>> observed_measurement("CNC(=O)c1cc(Cl)cc(C)c1NC(=O)c1cc(Br)nn1-c1ncccc1Cl")
1.02
>>> observed_measurement("CCOC(=O)C(O)(c1ccc(Cl)cc1)c1ccc(Cl)cc1")
0.978
>>> observed_measurement("CCCSP(=O)(OCC)SCCC")
0.99
>>> observed_measurement("ClCC(Br)CBr (stereo not drawn)")
0.992
